Entry source: ChEMBL document CHEMBL1201862

tested on: HOP-62; assay: NCI tumour cell line growth inhibition, 48 h
Active and inactive are the calls of the source. Cut-off read from the data, not from the text of the source: active = GI50 up to about 1.1 µM and inactive = higher.
Write down the outcome that applies. Available outcomes: 1 for active, -1 for inactive

Cc1cc2c(c(C(N)=O)c1C)-c1ccccc1C2=O | -1
Nc1nc(N)c2nn(-c3ccc(C(=O)O)cc3)nc2n1 | -1
O=C(OCc1ccccc1)OOC(=O)OCc1ccccc1 | -1
CCN(CC)CCNc1c2ccccc2nc2cccc([N+](=O)[O-])c12 | 1
CCOC(=O)/C=C(\C(=O)OCC)n1ccc(=O)n(Cc2cnnn2COCCOC(C)=O)c1=O | -1

stdin: Assay outcome for COc1cc(NS(C)(=O)=O)ccc1Nc1ccnc2ccc3[nH]ccc3c12 : what was it?
stdout: -1

stdin: Assay outcome for NCCCC(N)(C(=O)O)C(F)F (stereo unspecified) : what was it?
stdout: -1

stdin: Assay outcome for NS(=O)(=O)c1ccc(-c2ccc([As](=O)(O)O)cc2)cc1 : what was it?
stdout: -1

stdin: Assay outcome for CN(C)c1nc(N(C)C)nc(N(C)C23CC4CC(CC(C4)C2)C3)n1 : what was it?
stdout: -1

stdin: Assay outcome for Nc1cc(OCc2ccccc2)c(OCc2ccccc2)cc1C=O : what was it?
stdout: -1

stdin: Assay outcome for CCOC(=O)CNC(=O)NC12CC3CC(CC(C3)C1)C2 : what was it?
stdout: -1

stdin: Assay outcome for O=C1Nc2ccccc2/C1=C1/Nc2ccccc2/C1=N/OCCO : what was it?
stdout: -1

* * *

system: MOLT-4; assay: NCI tumour cell line growth inhibition, 48 h
The source made the active and inactive calls. Cut-off read from the data, not from the text of the source: active = GI50 up to about 1.1 µM and inactive = higher.
Write down the outcome that applies. Available outcomes: active, inactive

stdin: Assay outcome for C=CCC1(C(=O)OC(C)(C)C)C(OC)=C(C(=O)OC(C)(C)C)C2C1C(C(=O)OC(C)(C)C)=C(OC)C2(CC=C)C(=O)OC(C)(C)C (stereo unspecified) : what was it?
stdout: inactive

stdin: Assay outcome for Cn1nc(-c2cccc(-c3nn(C)/c(=N\CCO)s3)n2)s/c1=N/CCO : what was it?
stdout: inactive

stdin: Assay outcome for CC(C)(C)OC(=O)N1CC(O)O[C@H](c2ccccc2)[C@@H]1c1ccccc1 (stereo partly specified) : what was it?
stdout: inactive

stdin: Assay outcome for Cn1c(=O)n2n(c1=O)C1C(=CC2)C2C=CC1n1c(=O)n(C)c(=O)n12 (stereo unspecified) : what was it?
stdout: inactive

stdin: Assay outcome for COc1ccc(-n2cnc3c(NCC(=O)O)ncnc32)cc1 : what was it?
stdout: inactive

* * *

tested on: CCRF-CEM; experiment: NCI tumour cell line growth inhibition, 48 h
Calls of active or inactive are those of the source. Rule as the data show it: active = GI50 up to about 1.1 µM and inactive = higher.
Property Name: GI50

CC1=C2C(=O)c3ccccc3C(=O)[C@H]2C[C@@H](N2CCCC2=O)O1 | 32.4 µM (inactive)

stdin: Return the recorded GI50 value; entry: O=C1NC(=O)C(CCC(=O)c2ccc3ccccc3c2)C(=O)N1
stdout: > 100 µM (inactive)

stdin: Return the recorded GI50 value; entry: CC1(C)SC2C(NC(=O)C(C(=O)O)c3ccccc3)C(=O)N2C1C(=O)O (stereo unspecified)
stdout: > 100 µM (inactive)

* * *

system: NCI-H522; experiment: NCI tumour cell line growth inhibition, 48 h
Active and inactive are the calls of the source. Rule as the data show it: active = GI50 up to about 1.1 µM and inactive = higher.
Write down the outcome that applies. Available outcomes: 1 for active, -1 for inactive

Would you please look over these solved cases?
COc1cccc(N2C(=O)CSC2c2cccc(Oc3ccccc3)c2)c1 (stereo not given) | -1
CCCCCCCCCCCCC(Br)C(=O)NCC(N)=O (stereo not given) | -1
CC1CCN(c2nnc(Cl)cc2C(=O)c2ccccc2)CC1 | -1

stdin: Assay outcome for O=C(O)C(F)(F)C(F)(F)C(F)(F)C(F)(F)C(F)(F)C(F)(F)C(F)(F)C(F)(F)F : what was it?
stdout: -1

stdin: Assay outcome for CN(C)CCOc1cc2c(c3ccccc13)-c1ccccc1C2=O : what was it?
stdout: -1

stdin: Assay outcome for Cc1cc(=O)n2nc(CCl)sc2n1 : what was it?
stdout: -1

stdin: Assay outcome for Cc1ccc2c(O)cc(-c3cccc4ccccc34)nc2n1 : what was it?
stdout: 1

stdin: Assay outcome for CCC(C)C1=C(OC(C)=O)[N+]2([O-])Oc3ccc(-c4c(OC(C)=O)c(OC(C)=O)c(-c5ccc(OC(C)=O)cc5)c(OC(C)=O)c4OC(C)=O)cc3OC2(C(C)CC)C(=O)N1OC(C)=O (stereo not given) : what was it?
stdout: -1

stdin: Assay outcome for CC[C@H]1CN2CCc3cc(OC)c(OC)cc3[C@@H]2C[C@@H]1C[C@H]1NCCc2cc(O)c(OC)cc21 : what was it?
stdout: 1

stdin: Assay outcome for CC/C(Cl)=N\OC(=O)Nc1ccc(F)cc1F : what was it?
stdout: -1
